System: Cathepsin S (Homo sapiens) | Read-out: IC50 | Origin: multiple publications
Give just the number in nM; leave the unit off.

Below: 2 compounds and their reported IC50.
>>> print(df.to_string())
                                        smi  measured_parameter  unit_of_measure  assay_value
0  Cc1cc(-c2ccc(S(=O)(=O)[C@@H]3C[C@@H](C(=O)NC4(C#N)CC4)N(C(=O)C4(c5ncc(Cl)cc5F)CC4)C3)c(Cl)c2)ccn1                IC50               nM        0.505
1  N#CC1(NC(=O)[C@@H]2C[C@@H](S(=O)(=O)c3ccccc3OC(F)(F)F)CN2C(=O)C2(N3CCCCC3)CC2)CC1                IC50               nM          0.8

Request: Fill in IC50 for N#CC1(NC(=O)[C@@H]2C[C@@H](S(=O)(=O)c3ccc(F)cc3Cl)C[C@H]2CO)CC1 tested with Cathepsin S (Homo sapiens).
Result: 107
